# Read-out: 3-Hydroxy-3-Methylglutaryl-CoA Synthase 2 (HMGCS2), HMGCS2 (gene 3158)
# method: LTEA_HepaRG_HMGCS2: Life Technologies and Expression Analysis (LTEA) Assay for 3-Hydroxy-3-Methylglutaryl-CoA Synthase 2 (HMGCS2) using HepaRG (AID 2283504)
# cond: mRNA level, 48 h; actives raise or lower the signal
The source made the active and inactive calls. How the source made its calls: active means hit-call score of the fitted dose curve at least 0.9, where 1 is the maximum; inactive means score below 0.9.
Choose the fitting class; nothing outside Y (active), N (inactive) is accepted.

Study these solved cases before continuing.
>>> group("CN1CCCC1=O")
"N"
>>> group("CCc1c(C(=O)NN2CCCCC2)nn(-c2ccc(Cl)cc2Cl)c1-c1ccc(Br)cc1")
"Y"
>>> group("CC=Cc1ccc(O)c(OC)c1")
"N"
>>> group("CC(C)c1ccc(C(=O)N=C(N)N)cc1S(C)(=O)=O")
"N"

Inquiry: In this assay, the call recorded for NCC1(Cc2noc(=O)[nH]2)CCCCC1 was what?
Reply text: N

Inquiry: In this assay, the call recorded for O=C(OCCCCCOC(=O)c1ccccc1)c1ccccc1 was what?
Reply text: N

Inquiry: In this assay, the call recorded for Oc1ccc2ccccc2c1N=Nc1ccccc1 was what?
Reply text: Y

Inquiry: In this assay, the call recorded for CC(CO)OC(C)CO (stereo not given) (tested in a mixture with another compound) was what?
Reply text: N

Inquiry: In this assay, the call recorded for O=[N+]([O-])C(CO)(CO)CO was what?
Reply text: N

Inquiry: In this assay, the call recorded for CCCCCCCCCCCCCCCCCC(=O)O was what?
Reply text: N

Inquiry: In this assay, the call recorded for COCCOC[C@H](CC1(C(=O)NC2CCC(C(=O)O)CC2)CCCC1)C(=O)Oc1ccc2c(c1)CCC2 (stereo not given in full) was what?
Reply text: N

Inquiry: In this assay, the call recorded for Cc1ccc(N(C)C)cc1 was what?
Reply text: N

Inquiry: In this assay, the call recorded for COc1ccc(C)cc1N was what?
Reply text: N

Inquiry: In this assay, the call recorded for C[Si]1(C)O[Si](C)(C)O[Si](C)(C)O[Si](C)(C)O1 was what?
Reply text: N

Inquiry: In this assay, the call recorded for CC1(C)NC(=O)NC1=O was what?
Reply text: N
